Tested On: AXL (Homo sapiens (Human))
Sequence (P30530 26-894): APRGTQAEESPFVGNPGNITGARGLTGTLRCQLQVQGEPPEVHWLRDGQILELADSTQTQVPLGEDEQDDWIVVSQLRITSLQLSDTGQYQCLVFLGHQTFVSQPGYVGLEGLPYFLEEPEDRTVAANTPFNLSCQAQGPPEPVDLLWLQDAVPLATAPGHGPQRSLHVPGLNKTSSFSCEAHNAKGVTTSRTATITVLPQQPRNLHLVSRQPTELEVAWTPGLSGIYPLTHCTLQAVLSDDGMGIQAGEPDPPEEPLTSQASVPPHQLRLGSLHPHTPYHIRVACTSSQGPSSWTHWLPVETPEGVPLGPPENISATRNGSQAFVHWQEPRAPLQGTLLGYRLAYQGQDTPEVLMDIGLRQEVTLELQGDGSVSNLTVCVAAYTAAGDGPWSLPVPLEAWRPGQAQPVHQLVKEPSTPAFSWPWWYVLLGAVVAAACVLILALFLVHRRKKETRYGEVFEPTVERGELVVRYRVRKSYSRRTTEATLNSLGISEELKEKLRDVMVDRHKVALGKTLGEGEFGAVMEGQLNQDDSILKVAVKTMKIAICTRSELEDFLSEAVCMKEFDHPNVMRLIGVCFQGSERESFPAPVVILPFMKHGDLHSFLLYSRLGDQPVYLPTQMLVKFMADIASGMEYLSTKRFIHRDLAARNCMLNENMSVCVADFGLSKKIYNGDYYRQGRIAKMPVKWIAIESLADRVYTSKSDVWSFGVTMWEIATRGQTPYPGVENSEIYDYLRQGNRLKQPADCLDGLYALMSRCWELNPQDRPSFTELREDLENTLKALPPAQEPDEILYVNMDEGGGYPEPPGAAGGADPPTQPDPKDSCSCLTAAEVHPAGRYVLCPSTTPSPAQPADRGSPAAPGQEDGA
Assay Comment: AXL autophosphorylation ELISA in A-172 cells
Study Conditions: cellular, Gas6 stimulated
Quantity Name: IC50

A selection of reference data follows.
[
  {
    "Compound": "CNC(=O)Nc1ccc2c(Oc3ccc(NC(=O)C4(C(=O)Nc5ccc(F)cc5)CC4)cc3)ccnc2c1",
    "IC50": "100 to 300 nM"
  },
  {
    "Compound": "COc1cc2nccc(Oc3ccc(NC(=O)C4(C(=O)Nc5ccc(F)cc5)CC4)cc3)c2cc1C(=O)NC[C@H]1CCCN1",
    "IC50": "≤ 10 nM"
  },
  {
    "Compound": "CCC1NC(=O)c2cc3c(Oc4ccc(NC(=O)C5(C(=O)Nc6ccc(F)cc6)CC5)cc4)ccnc3cc2O1 (stereo not shown)",
    "IC50": "10 to 100 nM"
  }
]

Consider the additional compound presented here.
**Query** What measured IC50 goes with NC(=O)c1ccc2c(Oc3ccc(NC(=O)C4(C(=O)Nc5ccc(F)cc5)CC4)cc3)ccnc2c1 ?
**Result** ≤ 10 nM
